System: primary rat mixed cortical cells
experimental protocol: In vitro myelination assay (MBP positive myelin strands, fold myelin pixels above background)
Assay type: cell-based
condition summary: Rattus norvegicus, 10.0 μM compound, relative to baseline of no added compound; read-out: Fold myelin pixels above background, 10.0 μM
Measured fold induction at 10 µM values are reported for all entries that follow.

Recorded results for 3 compounds are shown here.
CCOC(=O)CN1CCN(c2cc(C)cc(Nc3ncn(-c4cc(F)cc(F)c4)n3)c2)CC1    1 to 10
Cc1cc(Nc2ncn(-c3ccc(F)c(F)c3)n2)cc(N2CCOCC2)n1    100 to 1000
Cc1cc(Nc2ncn(-c3cc(F)cc(F)c3)n2)cc(N2CCN(C3(C)COC3)CC2)c1    10 to 100

The recorded fold induction at 10 µM for `Cc1cc(Nc2ncn(-c3cncnc3)n2)cc(N2CCN(C)CC2)c1` is 100 to 1000

Recorded fold induction at 10 µM (compound `Cc1cc(Nc2ncn(-c3cc(F)cc(F)c3)n2)cc(N2CCn3ccnc3C2)c1` ): 1 to 10

Notebook: `Fc1ccc(-n2cnc(Nc3cc(C4=CCOCC4)nc(C4CC4)c3)n2)cc1F` , fold induction at 10 µM read as 1000 to 10000

For record `Fc1cc(F)cc(-n2cnc(Nc3cc(N4CCN(C5COC5)CC4)cc(C(F)(F)F)c3)n2)c1` the listed fold induction at 10 µM is 100 to 1000

`Cc1cc(Nc2ncn(-c3cc(F)cc(F)c3)n2)cc(N2C[C@H]3C[C@@H]2CN3C2COC2)c1` has a reported fold induction at 10 µM of 1 to 10
